Assay: reversal of MRP1-mediated doxorubicin resistance, pilot screen, H69AR cells, doxorubicin co-treatment (AID 601)
Conditions: H69AR cells + 2 uM doxorubicin, CellTiter-Glo, 72 h; measured here: viability with 2 uM doxorubicin; at 10 µM; stronger effect = lower value
READOUT NAME: viability (%)
Kindly provide the numeric value in % only, without the unit symbol.

Item under review: "Cn1c(=O)[nH]c(=O)c2c1nc(Br)n2Cc1ccccc1F" . Reported viability? 70.2

Item under review: Cc1ccc(C2C(C(=O)c3sc(C)nc3C)=C(O)C(=O)N2CCN(C)C)o1 (stereo unspecified) . Reported viability? 99.1

Item under review: "COc1cccc(C=Nc2ccc3c(c2)OCCO3)c1O" . Reported viability? 95

Item under review: "N#Cc1c(-c2ccc3c(c2)OCO3)csc1N" . Reported viability? 93.7

Item under review: "Cc1cc(O)c(NC(=O)c2ccc(Br)o2)cc1C" . Reported viability? 88.2

Item under review: "CCOc1ccccc1N1CCN(S(=O)(=O)c2cccc3nsnc23)CC1" . Reported viability? 81.4

Item under review: C=CCOC(=O)C1=C(C)NC(=O)NC1c1cn(-c2ccccc2)nc1-c1cccs1 (stereo unspecified) . Reported viability? 94.7

Item under review: "CCCCOc1ccc(-c2nnn(C(C)(C)C(=O)OC)n2)cc1" . Reported viability? 99.3

Item under review: O=C(C1CC2CCC1C2)N1CCN(Cc2ccc3c(c2)OCO3)CC1 (stereo unspecified) . Reported viability? 85.3

Item under review: "Cc1cccc(-n2c(=O)cc(N3CCN(c4ccc(F)cc4)CC3)[nH]c2=O)c1" . Reported viability? 71.8

Item under review: "CC1=Nn2c(nnc2-c2ccc(F)cc2)SC1" . Reported viability? 96.6

---

Assay: reversal of MRP1-mediated doxorubicin resistance, pilot screen, H69AR cells, doxorubicin co-treatment (AID 601)
Conditions: H69AR cells + 2 uM doxorubicin, CellTiter-Glo, 72 h; at 10 µM; stronger effect = higher value
READOUT NAME: differential viability (reversal) (%)
Kindly provide the numeric value in % only, without the unit symbol.

Item under review: Cc1ccc(C2C(C(=O)c3sc(C)nc3C)=C(O)C(=O)N2CCN(C)C)o1 (stereo unspecified) . Reported differential viability (reversal)? 3.58

Item under review: "C=CCSc1nc2c(c(=O)[nH]c(=O)n2C)n1CC" . Reported differential viability (reversal)? 7.82

Item under review: "Cc1ccc(-n2ncc3c(=O)n(CC(=O)NCc4ccco4)cnc32)cc1" . Reported differential viability (reversal)? -12.3

Item under review: CC(=O)c1c(C)nn(C(C)CC(=O)O)c1C (stereo unspecified) . Reported differential viability (reversal)? 8.11

Item under review: "Cc1cccc(NC(=O)CN(C)S(=O)(=O)c2ccccc2)n1" . Reported differential viability (reversal)? 9.79

Item under review: "COc1ccccc1NC(=O)N1CCN(c2ccccc2F)CC1" . Reported differential viability (reversal)? 19.5

Item under review: "Cn1cc(C(=O)NC2CCCCCCC2)c(=O)c2cc(S(=O)(=O)N3CCCC3)ccc21" . Reported differential viability (reversal)? 0.325

Item under review: "COc1ccc(NC(=O)CSc2ccccn2)cc1OC" . Reported differential viability (reversal)? 20.2

Item under review: "Cc1cccc2c1nc(-c1ccccc1)n1cnnc21" . Reported differential viability (reversal)? -8.59

Item under review: "CCSc1nnc(NC(=O)c2cc(C)oc2C)s1" . Reported differential viability (reversal)? 12.6

Item under review: "Cc1occc1-c1nc(-c2ccncc2)no1" . Reported differential viability (reversal)? 2.9

Item under review: "CCOC(=O)C1=C(C)N(C)C(C)=C(C(=O)OCC)C1c1cccnc1" . Reported differential viability (reversal)? 0.9

Item under review: "COc1cccc2c(=O)cc(C)n(CC(=O)Nc3ccc(C)c(C)c3)c12" . Reported differential viability (reversal)? 13.4

Item under review: "O=C(CN1CCC(O)(c2ccc3c(c2)OCO3)CC1)OC1CCCCC1" . Reported differential viability (reversal)? 3.36

Item under review: "CCN(CC)C(=O)CSc1nnc(-c2cc(OC)cc(OC)c2)o1" . Reported differential viability (reversal)? 2.03

Item under review: Cn1c2c(c(=O)n(C)c1=O)C(NC(=O)C(C)(C)C)(C(F)(F)F)C(=O)N2 (stereo unspecified) . Reported differential viability (reversal)? 9.01

Item under review: COc1cc(C(Nc2ccc3c(c2)OCO3)C(=O)NC2CCCCC2)cc(OC)c1OC (stereo unspecified) . Reported differential viability (reversal)? -6.39

Item under review: "COc1cc(CN2CCSCC2)cc(OC)c1OC" . Reported differential viability (reversal)? 21

Item under review: "COc1ccc(C)cc1C(=O)CCC(=O)Nc1ccccc1N1CCOCC1" . Reported differential viability (reversal)? -1.5

Item under review: CC(NC(=O)NC12CC3CC(CC(C3)C1)C2)C1CCCO1 (stereo unspecified) . Reported differential viability (reversal)? 10.1

Item under review: "Clc1ccc(Cl)c(-c2nn3c(COc4ccccc4)nnc3s2)c1" . Reported differential viability (reversal)? 1.02

Item under review: "Cc1ccc(-c2nnc(-c3cccc(Br)c3)o2)cc1" . Reported differential viability (reversal)? -3

Item under review: "Cc1sc2nc(SCC(=O)Nc3c(C)n(C)n(-c4ccccc4)c3=O)n(C)c(=O)c2c1C" . Reported differential viability (reversal)? 1.12

Item under review: "c1ccc(-c2cc(-c3nc(-c4ccccn4)no3)c3ccccc3n2)cc1" . Reported differential viability (reversal)? 2.75

Item under review: "CCN1CCN(Cc2ccccc2NC(=O)Nc2ccc(C)cc2)CC1" . Reported differential viability (reversal)? 11.2

Item under review: CCc1ncc(C(O)c2cccc(OC)c2OC)n1C (stereo unspecified) . Reported differential viability (reversal)? 11.3

Item under review: CCCCN1C(=O)C2C(C(=O)Nc3cccc(OC)c3)C3C=CC2(O3)C1C(=O)NC1CCCCC1C (stereo unspecified) . Reported differential viability (reversal)? 3.86

Item under review: "COc1cc(/C=C/C(=O)CC(=O)/C=C/c2ccc(O)c(OC)c2)ccc1O" . Reported differential viability (reversal)? 1.03

Item under review: O=C(NS(=O)(=O)c1ccc(NC(=O)C2CCCO2)cc1)c1ccccc1 (stereo unspecified) . Reported differential viability (reversal)? 4.17

Item under review: "O=C(NCc1ccccn1)c1ccc2nc(-c3ccco3)c(-c3ccco3)nc2c1" . Reported differential viability (reversal)? -5.92

Item under review: "CCOC(=O)c1cnc(-n2nc(C)cc2C)nc1Nc1ccc(N(C)C)cc1" . Reported differential viability (reversal)? 11.6

Item under review: "CCOC(=O)Cn1nnc(-c2ccc(SC)cc2)n1" . Reported differential viability (reversal)? 5.72

Item under review: "CCCn1c(SCC(=O)NC(=O)NCc2ccco2)n[nH]c1=O" . Reported differential viability (reversal)? 1.45

Item under review: N#CC1=C(N)N(c2ccccc2)C(c2ccco2)C1(C#N)C#N (stereo unspecified) . Reported differential viability (reversal)? -0.88

Item under review: CC1CN(CC(O)COc2ccc(C(C)C)cc2)CC(C)O1 (stereo unspecified) . Reported differential viability (reversal)? 3.78

Item under review: c1ccc2c(c1)c1c3n2CCNC3CCC1 (stereo unspecified) . Reported differential viability (reversal)? 4.74

Item under review: CCOC(=O)C1CN(S(=O)(=O)c2ccc(C)cc2)CCN1S(=O)(=O)c1ccc(C)cc1 (stereo unspecified) . Reported differential viability (reversal)? -16.3

Item under review: Cc1nc(C)n(C(C)CC(=O)O)n1 (stereo unspecified) . Reported differential viability (reversal)? 5.71

Item under review: "CCOC(=O)N1CCN(Cc2nc3c(c(=O)[nH]c(=O)n3C)n2Cc2cc(C)ccc2C)CC1" . Reported differential viability (reversal)? 7.95

Item under review: "N#CCCn1cnc2ccccc21" . Reported differential viability (reversal)? 3.56

Item under review: "C=CCn1c(=O)c(C(=O)Nc2ccccc2C(=O)OCC)c(O)c2ccccc21" . Reported differential viability (reversal)? -26.9

Item under review: "Cc1c(C#N)c(N)c(C(=O)c2ccccc2)n1Cc1ccccc1" . Reported differential viability (reversal)? 0.08

Item under review: "CCCC(=O)Nc1ccccc1-c1nnn(CC(=O)Nc2ccc(OC)cc2)n1" . Reported differential viability (reversal)? -14.1

Item under review: "Cc1nn(-c2nc3ccccc3[nH]2)c(N)c1-c1ccccc1" . Reported differential viability (reversal)? -27.6

Item under review: O=C(NCc1ccc2c(c1)OCO2)C1CCC(CNS(=O)(=O)c2ccccc2)CC1 (stereo unspecified) . Reported differential viability (reversal)? -1.49

Item under review: CCOC(=O)C1CSc2[nH]c(=O)sc2C1c1ccccc1 (stereo unspecified) . Reported differential viability (reversal)? -9.41

---

Experiment: growth suppression of yeast trafficking mutant, preliminary HTS, modulators of trafficking downstream of Golgi apparatus project, 1536-format plate, OD 615 nm (AID 637)
Settings: yeast transport mutant growth, absorbance 615 nm, 18 h; stronger effect = higher value
Kindly supply the reported inhibition values for the records listed here.
Kindly provide the numeric value in % only, without the unit symbol.

Item under review: "Cn1c(=O)c(=O)n(C)c2cc(S(=O)(=O)Nc3ccc4c(c3)OCCO4)ccc21" . Reported inhibition? 8.41

Item under review: "CSc1c(CC(=O)NCCO)n(C)c2ccccc12" . Reported inhibition? 0.91

Item under review: "CCN(CC)CCNC(=O)c1ccc(N2CCCCC2)c(NS(=O)(=O)c2ccc(C)cc2)c1" . Reported inhibition? 7.21

Item under review: COC(=O)Cc1[nH]nc2c1C(C1C=CCCC1)C(C#N)=C(N)O2 (stereo not given) . Reported inhibition? 3.33

Item under review: O=C(O)C1CC=CCC1C(=O)Nc1cccc(C(=O)N2CCCCC2)c1 (stereo not given) . Reported inhibition? 9.21

Numbers sourced from PubChem BioAssay.
